test system: human 20S proteasome; construct: purchased Boston Biochem, Inc. (Cambridge, MA); assay: Fluorogenic peptide degradation 20S proteasome activity assay, combination of CT-L, T-L and Casp-L substrates; assay type: biochemical; conditions: 30 μM compound; mixture of the three substrates; 15 min pre-treatment at 37° C., 1 h read
Quick rule for you: Fold increase over vehicle (30 μM), enhancement of 20S activity at 3 fold or higher means YES, lower means NO.

molecule	class
COc1ccc2c(c1)N=C(c1ccccc1)N(C1CCCCC1)C2c1ccccc1 (stereo not drawn)	YES
COc1ccc2c(c1)N=C(c1ccccc1)N(CC1CCOCC1)C2c1ccccc1 (stereo not drawn)	NO
COc1ccc2c(c1)N=C(c1ccccc1)N(CCc1ccccn1)C2c1ccccc1 (stereo not drawn)	NO
COc1ccc2c(c1)N=C(c1ccccc1)N(C1CCN(C)CC1)C2c1ccccc1 (stereo not drawn)	NO
COc1ccc2c(c1)N=C(C)N(Cc1ccccc1)C2c1ccccc1 (stereo not drawn)	NO
COc1ccc2c(c1)N=C(C1CC1)N(Cc1ccccc1)C2c1ccccc1 (stereo not drawn)	NO
COc1ccc2c(c1)N=C(c1ccccc1)N(C1CCN(Cc3ccccc3)CC1)C2c1ccccc1 (stereo not drawn)	YES
COc1ccc2c(c1)N=C(c1ccccc1)N(c1ccccn1)C2c1ccccc1 (stereo not drawn)	YES
COc1ccc2c(c1)N=C(C(C)C)N(Cc1ccccc1)C2c1ccccc1 (stereo not drawn)	NO
COc1ccc2c(c1)N=C(c1ccccc1)N(CC#N)C2c1ccccc1 (stereo not drawn)	NO
COc1ccc2c(c1)N=C(c1ccccc1)N(c1ccccc1)C2c1ccccc1 (stereo not drawn)	YES
C=CCN1C(c2ccccc2)=Nc2cc(OC)ccc2C1c1ccccc1 (stereo not drawn)	NO
CCCCCC1=Nc2cc(OC)ccc2C(c2ccccc2)N1Cc1ccccc1 (stereo not drawn)	NO
COc1ccc2c(c1)N=C(C1CCCCC1)N(Cc1ccccc1)C2c1ccccc1 (stereo not drawn)	YES
COc1ccc2c(c1)N=C(c1ccccc1)N(c1cccc3cccnc13)C2c1ccccc1 (stereo not drawn)	YES
CCCCCc1ccc2c(c1)N=C(c1ccccc1)N(Cc1ccccc1)C2c1ccccc1 (stereo not drawn)	NO
COc1ccc2c(c1)N=C(c1ccccc1)N(CC1CCCCC1)C2c1ccccc1 (stereo not drawn)	YES
COc1ccc2c(c1)N=C(c1ccccc1)N(CC1CCN(C)CC1)C2c1ccccc1 (stereo not drawn)	NO

====

Recorded Max Fold, Combo values for a group of molecules are listed next.
test system: human 20S proteasome; construct: purchased Boston Biochem, Inc. (Cambridge, MA); test: Fluorogenic peptide degradation 20S proteasome activity assay, combination of CT-L, T-L and Casp-L substrates; format: biochemical; details: combination of the three substrates; 1.25-40 μM titration

molecule	Max Fold, Combo [fold]
COc1ccc2c(c1)N=C(c1ccccc1)N(C1CCN(Cc3ccccc3)CC1)C2c1ccccc1 (stereo not shown)	5.5
COc1ccc2c(c1)N=C(c1ccccc1)N(Cc1ccccc1)C2c1ccccc1 (stereo not shown)	10.1
COc1ccc2c(c1)N=C(c1ccccc1)N(c1ccccc1)C2c1ccccc1 (stereo not shown)	11.1
COc1ccc2c(c1)N=C(c1ccccc1)N(C1CCN(C)CC1)C2c1ccccc1 (stereo not shown)	1.4

====

Recorded Fold increase over vehicle (30 μM), enhancement of 20S activity values for a group of molecules are listed next.
tested on: human 20S proteasome; construct: purchased Boston Biochem, Inc. (Cambridge, MA); assay: Fluorogenic peptide degradation 20S proteasome activity assay, combination of CT-L, T-L and Casp-L substrates; format: biochemical; conditions: 30 μM compound; mixture of the three substrates; 15 min pre-treatment at 37° C., 1 h read
readout_name: Fold increase over vehicle (30 μM), enhancement of 20S activity (fold)

molecule	measurement_target	numeric_value
COc1ccc2c(c1)N=C(c1ccccc1)N(c1cccnc1)C2c1ccccc1 (stereo not drawn)	human 20S proteasome	5.9
c1ccc(CN2C(c3ccccc3)=Nc3ccccc3C2c2ccccc2)cc1 (stereo not drawn)	human 20S proteasome	4
COc1ccc2c(c1)N=C(c1ccccc1)N(Cc1ccccn1)C2c1ccccc1 (stereo not drawn)	human 20S proteasome	2
COc1ccc2c(c1)N=C(c1ccccc1)N(Cc1ccccc1)C2c1ccccc1 (stereo not drawn)	human 20S proteasome	7.9
CCCCCCN1C(c2ccccc2)=Nc2cc(OC)ccc2C1c1ccccc1 (stereo not drawn)	human 20S proteasome	1.6
Cc1ccc2c(c1)N=C(c1ccccc1)N(Cc1ccccc1)C2c1ccccc1 (stereo not drawn)	human 20S proteasome	8.1
